Assay: Hydrodynamic diameter and colloidal stability of aggregates by dynamic light scattering
Format: physicochemical
Conditions: 2.5 μM in PBS from DMSO stock, 37 °C
measurement.type: zeta potential (mV)

COc1ccc2[nH]cc(CCNC(=O)CNC(=O)CCC(=O)O[C@@H]3CC(C)=C(/C=C/C(C)=C/C=C/C(C)=C/C=C/C=C(C)/C=C/C=C(C)/C=C/C(=O)[C@]4(C)C[C@@H](OC(=O)CCC(=O)NCC(=O)NCCc5c[nH]c6ccc(OC)cc56)CC4(C)C)C(C)(C)C3)c2c1 [Compound 17, Capsanthin-dimelatonin conjugate]    −22.2

1: CC1=C(/C=C/C(C)=C/C=C/C(C)=C/C=C/C=C(C)/C=C/C=C(C)/C=C/C2=C(C)C[C@@H](OC(=O)CCC(=O)O)CC2(C)C)C(C)(C)C[C@H](O)C1 [Compound 11, Zeaxanthin monossuccinate]
2: COc1ccc2[nH]cc(CCNC(=O)CNC(=O)CCC(=O)OC/C(C)=C/C=C/C(C)=C/C=C/C=C(C)/C=C/C=C(C)/C=C/C3=C(C)CCCC3(C)C)c2c1 [Compound 18, 8′-Apo-β-carotenol-melatonin conjugate]
3: CC1=C[C@H](OC(=O)CCC(=O)O)CC(C)(C)[C@H]1/C=C/C(C)=C/C=C/C(C)=C/C=C/C=C(C)/C=C/C=C(C)/C=C/C1=C(C)C[C@@H](OC(=O)CCC(=O)O)CC1(C)C [Compound 10, Lutein bissuccinate]
[ask] With regard to zeta potential, arrange the entries in ascending order, please. Return value: ordered labels per request.
[reply] 2, 3, 1
(2: −29.5 mV, 3: 0.0 mV, 1: 80.6 mV)
